- testedSystem: human recombinant histamine H2 receptor (Homo sapiens, UniProt P25021)
- Construct: expressed in transfected cells; host or cells: CHO-K1 cells
- Sequence (P25021 whole entry): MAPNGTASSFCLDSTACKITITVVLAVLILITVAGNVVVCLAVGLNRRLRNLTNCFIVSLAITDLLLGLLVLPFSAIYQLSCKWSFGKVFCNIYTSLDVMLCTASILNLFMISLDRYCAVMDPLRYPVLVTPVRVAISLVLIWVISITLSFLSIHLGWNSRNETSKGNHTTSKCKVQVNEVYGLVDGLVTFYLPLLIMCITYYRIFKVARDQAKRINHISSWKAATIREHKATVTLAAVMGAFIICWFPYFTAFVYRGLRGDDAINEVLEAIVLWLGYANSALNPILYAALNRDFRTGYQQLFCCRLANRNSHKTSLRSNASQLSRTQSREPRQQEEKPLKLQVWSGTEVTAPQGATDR
- measurementProtocol: Histamine H2 radioligand binding ([125I]aminopotentidine)
- assaySetup: compound at 1 μM; CHO K1 cells; read-out: Histamine Binding (1 μM) H2, percent inhibition of specific binding
inhibition at 1 µM class ranges: zone 1: < 8%; zone 2: ≥ 8% and < 20%; zone 3: ≥ 20%

Use the examples below as a reference point.
# compound, groupLabel
records = [
    ("C#CCn1c2c(c3cc(C)ccc31)CN(C)CC2 [CD73]", "zone 2"),
    ("CN1CCc2c(c3cc(Cl)ccc3n2CCC(=O)OC2CCCC2)C1 [Compound 21]", "zone 3"),
    ("Cc1ccc2c(c1)c1c(n2CC(=O)O)CCN(C)C1 [CD58]", "zone 1"),
    ("Cc1ccc2c(c1)c1c(n2CCNC(=O)C(C)C)CCN(C)C1 [Compound 61]", "zone 2"),
    ("CN1CCc2c(c3cc(Cl)ccc3n2CC(=O)OC2CCCC2)C1 [Compound 15]", "zone 3"),
    ("CC(C)OC(=O)Cn1c2c(c3cc(Cl)ccc31)CN(C)CC2 [Compound 11]", "zone 1"),
    ("CN1CCc2c(c3cc(Cl)ccc3n2CC(=O)OCC2CCCCC2)C1 [Compound 14]", "zone 3"),
]

Now consider the entry below.
Input line: Classify this compound: Cc1ccc2c(c1)c1c(n2CC(=O)NC(C)C)CCN(C)C1 [Compound 23]
Output line: zone 1

###

Below, each entry is listed with its recorded inhibition at 1 µM.
- testedSystem: human recombinant serotonin (5-Hydroxytryptamine) 5-HT7 receptor (Homo sapiens)
- Construct: expressed in transfected cells; host or cells: CHO cells
- Sequence (P34969 whole entry): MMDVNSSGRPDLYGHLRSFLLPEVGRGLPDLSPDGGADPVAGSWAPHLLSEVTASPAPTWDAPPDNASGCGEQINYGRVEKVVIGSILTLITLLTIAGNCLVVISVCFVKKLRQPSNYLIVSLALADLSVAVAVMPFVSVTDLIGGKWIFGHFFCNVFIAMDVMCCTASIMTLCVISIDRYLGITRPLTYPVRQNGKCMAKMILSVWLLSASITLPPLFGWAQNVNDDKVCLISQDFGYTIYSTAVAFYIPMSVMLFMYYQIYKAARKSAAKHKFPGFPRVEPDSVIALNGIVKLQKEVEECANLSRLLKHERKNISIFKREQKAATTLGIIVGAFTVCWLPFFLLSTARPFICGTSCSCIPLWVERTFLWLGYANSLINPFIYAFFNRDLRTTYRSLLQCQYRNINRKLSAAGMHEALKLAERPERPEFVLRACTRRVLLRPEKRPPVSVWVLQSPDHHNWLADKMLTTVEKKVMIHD
- measurementProtocol: Serotonin 5-HT7 radioligand binding ([3H]LSD)
- assaySetup: compound at 1 μM; CHO cells; read-out: Serotonin (1 μM) 5-HT7, percent inhibition of specific binding
Enter your answer as a number in %; do not include the unit.

# molecule, inhibition at 1 µM / %
data = [
    ("Cc1ccc2c(c1)c1c(n2C2CCCCC2O)CCN(C)C1 (stereo not drawn)", 5),
    ("CCNC(=O)CCn1c2c(c3cc(C)ccc31)CN(C)CC2", 47),
    ("CCNC(=O)CCCn1c2c(c3cc(C)ccc31)CN(C)CC2", 43),
    ("Cc1ccc2c(c1)c1c(n2CCNC(=O)C2CCCNC2)CCN(C)C1 (stereo not drawn)", -8),
    ("Cc1ccc2c(c1)c1c(n2CCC(=O)NC2CCCC2)CCN(C)C1", 59),
    ("Cc1ccc2c(c1)c1c(n2CCNC(=O)OCC(Cl)(Cl)Cl)CCN(C)C1", 75),
    ("Cc1ccc2c(c1)c1c(n2CCC(=O)NC2CCCCC2)CCN(C)C1", 36),
    ("Cc1ccc2c(c1)c1c(n2CC#N)CCN(C)C1", 94),
]

Input line: Name the recorded inhibition at 1 µM for CCOC(=O)CCCn1c2c(c3cc(C)ccc31)CN(C)CC2 .
Output line: 95

Input line: Name the recorded inhibition at 1 µM for C#CCn1c2c(c3cc(C)ccc31)CN(C)CC2 .
Output line: 91

Input line: Name the recorded inhibition at 1 µM for CNC(=O)CCn1c2c(c3cc(C)ccc31)CN(C)CC2 .
Output line: 33

Input line: Name the recorded inhibition at 1 µM for CCOC(=O)CCn1c2c(c3cc(C)ccc31)CN(C)CC2 .
Output line: 85

###

- testedSystem: human recombinant adrenergic α2A receptor (Homo sapiens, UniProt P08913)
- Construct: expressed in transfected cells; host or cells: insect Sf9 cells
- Sequence (P08913 1-465): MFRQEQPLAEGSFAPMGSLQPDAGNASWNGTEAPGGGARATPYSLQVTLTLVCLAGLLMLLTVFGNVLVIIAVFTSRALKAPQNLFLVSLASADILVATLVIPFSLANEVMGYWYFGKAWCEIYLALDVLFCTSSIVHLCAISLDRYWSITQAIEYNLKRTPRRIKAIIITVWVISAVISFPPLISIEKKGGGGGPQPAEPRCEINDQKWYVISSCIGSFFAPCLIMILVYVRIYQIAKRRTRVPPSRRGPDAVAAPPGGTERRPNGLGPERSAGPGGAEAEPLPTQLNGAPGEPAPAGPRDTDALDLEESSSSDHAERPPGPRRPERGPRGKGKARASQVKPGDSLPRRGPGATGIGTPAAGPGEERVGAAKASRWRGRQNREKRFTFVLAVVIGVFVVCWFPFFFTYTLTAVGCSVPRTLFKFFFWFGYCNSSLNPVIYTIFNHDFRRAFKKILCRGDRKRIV
- measurementProtocol: Adrenergic α2A radioligand binding ([3H]MK-912)
- assaySetup: compound at 1 μM; insect Sf9 cells; read-out: Adrenergic (1 μM) α2A, percent inhibition of specific binding
Answer false if inhibition at 1 µM is under 70%, and true if it is 70% or more.

# smilesStructure, groupLabel
rows = [
    ("CCCCOC(=O)Cn1c2c(c3cc(Cl)ccc31)CN(C)CC2", "false"),
    ("CN1CCc2c(c3cc(Cl)ccc3n2CC(=O)NC2CCCC2)C1", "false"),
    ("CN1CCc2c(c3cc(Cl)ccc3n2CCCO)C1", "true"),
    ("Cc1ccc2c(c1)c1c(n2CCNC(=O)C2CCNCC2)CCN(C)C1", "false"),
    ("Cc1ccc2c(c1)c1c(n2CCC(N)=O)CCN(C)C1", "false"),
    ("Cc1ccc2c(c1)c1c(n2CC(N)=O)CCN(C)C1", "false"),
    ("CN1CCc2c(c3cc(Cl)ccc3n2CCC(N)=O)C1", "true"),
    ("CN1CCc2c(c3cc(Cl)ccc3n2CCC(=O)N(C)C)C1", "true"),
    ("Cc1ccc2c(c1)c1c(n2CC(=O)Nc2ccc(F)cc2)CCN(C)C1", "false"),
]

Now consider the entry below.
Input line: Is inhibition at 1 µM at least 70%? Consider Cc1ccc2c(c1)c1c(n2CC#N)CCN(C)C1
Output line: true

###

Below, each entry is listed with its recorded inhibition at 1 µM.
- testedSystem: human recombinant histamine H1 receptor (Homo sapiens)
- Construct: expressed in transfected cells; host or cells: CHO cells
- Sequence (P35367 whole entry): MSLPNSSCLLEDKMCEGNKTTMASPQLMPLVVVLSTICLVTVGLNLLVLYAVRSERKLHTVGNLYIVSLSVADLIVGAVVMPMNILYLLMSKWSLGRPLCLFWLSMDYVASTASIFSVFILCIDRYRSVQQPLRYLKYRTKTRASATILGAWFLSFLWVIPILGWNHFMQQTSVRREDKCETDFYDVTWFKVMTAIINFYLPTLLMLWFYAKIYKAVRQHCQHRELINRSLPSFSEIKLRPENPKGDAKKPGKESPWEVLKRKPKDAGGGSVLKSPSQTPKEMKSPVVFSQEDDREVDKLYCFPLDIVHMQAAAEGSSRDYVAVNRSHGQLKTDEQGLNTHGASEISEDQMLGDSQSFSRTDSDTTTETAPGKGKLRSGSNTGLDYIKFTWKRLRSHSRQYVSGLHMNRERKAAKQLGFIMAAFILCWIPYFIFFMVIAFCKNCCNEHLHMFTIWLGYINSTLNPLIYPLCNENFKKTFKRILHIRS
- measurementProtocol: Histamine H1 radioligand binding ([3H]Pyrilamine)
- assaySetup: compound at 1 μM; CHO cells; read-out: Histamine Binding (1 μM) H1, percent inhibition of specific binding
- Method: To evaluate in radioligand binding assays the activity of compounds of the invention, human recombinant histamine H1 receptor expressed in Chinese hamster ovary (CHO) cells (De Backer, M. D. et al., Biochem. Biophys. Res. Comm. 197(3):1601, 1993) in a modified Tris-HCl buffer (50 mM Tris-HCl, pH 7.4, 2 mM MgCl2, 100 mM NaCl, 250 mM Sucrose) was used. […] Receptor proteins were filtered and washed, the filters were then counted to determine [^3H]Pyrilamine specifically bound. […]
Enter your answer as a number in %; do not include the unit.

# compound, valueMeasured
measured = [
    ("CCCCOC(=O)Cn1c2c(c3cc(Cl)ccc31)CN(C)CC2", 98),
    ("Cc1ccc2c(c1)c1c(n2CC#N)CCN(C)C1", 98),
    ("CCOC(=O)CCn1c2c(c3cc(C)ccc31)CN(C)CC2", 101),
    ("Cc1ccc2c(c1)c1c(n2CCNC(=O)C2CCCC2)CCN(C)C1", 58),
]

Input line: Name the recorded inhibition at 1 µM for Cc1ccc2c(c1)c1c(n2CCO)CCN(C)C1 .
Output line: 60

Input line: Name the recorded inhibition at 1 µM for CN1CCc2c(c3cc(Cl)ccc3n2CC(=O)OCC2CCCCC2)C1 .
Output line: 98

Input line: Name the recorded inhibition at 1 µM for CN1CCc2c(c3cc(Cl)ccc3n2CC(=O)OC(C)(C)C)C1 .
Output line: 101

###

- testedSystem: human recombinant histamine H2 receptor (Homo sapiens)
- Construct: expressed in transfected cells; host or cells: CHO-K1 cells
- measurementProtocol: Histamine H2 radioligand binding ([125I]aminopotentidine)
- assaySetup: compound at 1 μM; CHO K1 cells; read-out: Histamine Binding (1 μM) H2, percent inhibition of specific binding
Answer Not satisfied if inhibition at 1 µM is under 20%, and Satisfied if it is 20% or more.

Input line: Is inhibition at 1 µM at least 20%? Consider CN1CCc2c(c3cc(Cl)ccc3n2CC(=O)O)C1 [CD46]
Output line: Not satisfied

###

- testedSystem: human recombinant histamine H2 receptor (Homo sapiens, UniProt P25021)
- Construct: expressed in transfected cells; host or cells: CHO-K1 cells
- measurementProtocol: Histamine H2 radioligand binding ([125I]aminopotentidine)
- assaySetup: compound at 1 μM; CHO K1 cells; read-out: Histamine Binding (1 μM) H2, percent inhibition of specific binding
Below, each entry is listed with its recorded inhibition at 1 µM.
Enter your answer as a number in %; do not include the unit.

Previously resolved entries follow.
# compound, inhibition at 1 µM, %
rows = [
    ("Cc1ccc2c(c1)c1c(n2CCNC(=O)c2ccc(F)cc2Cl)CCN(C)C1", 35),
    ("Cc1ccc2c(c1)c1c(n2C2CCCCC2O)CCN(C)C1 (centres unmarked)", 8),
    ("CN1CCc2c(c3cc(Cl)ccc3n2CCC(=O)OCc2ccccc2)C1", 81),
    ("Cc1ccc2c(c1)c1c(n2CCC(=O)O)CCN(C)C1", 16),
    ("Cc1ccc2c(c1)c1c(n2CCC(=O)Nc2ccc(F)cc2)CCN(C)C1", 53),
    ("Cc1ccc2c(c1)c1c(n2CCC(=O)NCC2CCCCC2)CCN(C)C1", 41),
    ("Cc1ccc2c(c1)c1c(n2CCNC(=O)c2ccncc2)CCN(C)C1", 9),
    ("CN1CCc2c(c3cc(Cl)ccc3n2CCC(N)=O)C1", -6),
    ("Cc1ccc2c(c1)c1c(n2CC(N)=O)CCN(C)C1", -3),
    ("CCOC(=O)Cn1c2c(c3cc(Cl)ccc31)CN(C)CC2", 28),
]

Input line: Name the recorded inhibition at 1 µM for CN1CCc2c(c3cc(Cl)ccc3n2CCC(=O)N(C)C)C1 .
Output line: 5

Input line: Name the recorded inhibition at 1 µM for Cc1ccc2c(c1)c1c(n2CCN)CCN(C)C1 .
Output line: 65

Input line: Name the recorded inhibition at 1 µM for CN1CCc2c(c3cc(Cl)ccc3n2CCC#N)C1 .
Output line: 2

Input line: Name the recorded inhibition at 1 µM for Cc1ccc2c(c1)c1c(n2CC(=O)NCC2CCCCC2)CCN(C)C1 .
Output line: 22
